Exercise: state measured median log2 fold change for each of the binders provided.
- Assayed System: UCHL1, P09936
- Sequence (P09936 whole entry, looked up, the tested form may be a part): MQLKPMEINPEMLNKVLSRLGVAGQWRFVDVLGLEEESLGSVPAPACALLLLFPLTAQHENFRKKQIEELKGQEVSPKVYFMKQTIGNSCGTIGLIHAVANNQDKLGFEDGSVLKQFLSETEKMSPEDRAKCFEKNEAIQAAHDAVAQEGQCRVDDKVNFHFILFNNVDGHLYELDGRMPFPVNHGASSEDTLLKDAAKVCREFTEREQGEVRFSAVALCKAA
- Test Method Notes: median log2 fold change of GCK-ALFA target abundance (FLAG IP / Myc IP barcode read proportion) (log2 ratio); each designed protein is fused to an ALFA-tag nanobody in HEK293 cells to bring the named protein to FLAG-tagged glucokinase (GCK); Myc marks an untargeted standard; higher = target protein stabilised (more abundant)
- Measurement Context: target protein: 3xFLAG-MCP-GCK-ALFA reporter; HEK293 landing pad (RPLP)

# return recorded median log2 fold change for input uchl1_2_7539 (protein) KTKFVGALVEITAKDEKTGKVYRSRRTLIGTESAIEAMAKEIKELVLNFKEETGVPVEVKVTVYAENKETAEKMKKELEKMAKELAKEGIKVEIEVKLVE -0.811

# return recorded median log2 fold change for input uchl1_2_7569 (protein) KTVFVGVKVTLEAYDEKTGKRYRSRHTLIFTEDSIEALAKEIKELALDFQKDVGVPVTVNIEVYSTDEAVVKKTMAVLEKMAKELAKEGIKVNITGTVVK -1.14

# return recorded median log2 fold change for input uchl1_89_7576 (protein) AEARAQAARARLRAVLAATRAEVERLLARLGEVDPALRAAFDAFFAAAEAAIADPSTAAAALAAAEAAARRLVELAPPEYRASFRLATGRLLNLLRGYAA -0.0383

# return recorded median log2 fold change for input uchl1_143_7473 (protein) HHHMMETETVEIEVKEDDTPEEIRERMMKAIEEAIAAGKNLRIVITVPSDANKRLMANTVAKRVAREAAKKYREKLKRLEIYLRDKETGKEDLIALVENP 0.139

Data origin: the supplement of paper PMC12632987
